Target: D1 dopamine receptor (Macaca fascicularis, UniProt Q5I6B7)
Sequence (Q5I6B7 whole entry): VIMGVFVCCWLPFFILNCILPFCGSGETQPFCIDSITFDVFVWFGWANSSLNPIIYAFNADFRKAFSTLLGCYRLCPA
Measured pKi, listed per entry.
Note: pKi values are expressed as the negative base-10 logarithm of concentration in M.

Record excerpt, results attached:
molecule	assayed system	pKi
CN1CCc2cc(Cl)c(O)cc2[C@@H](c2ccccc2)C1 [SCH 23390,R(+)]	D1 dopamine receptor (Macaca fascicularis, UniProt Q5I6B7)	8.89
Oc1cc2c(cc1O)[C@@H](c1ccccc1)CNCC2	D1 dopamine receptor (Macaca fascicularis, UniProt Q5I6B7)	6.97

Please find the next molecule below.
Ask: Enter reported pKi observed with D1 dopamine receptor (Macaca fascicularis, UniProt Q5I6B7) for `Oc1cc2c(cc1O)[C@@H]1c3ccccc3CN[C@@H]1CC2`
Reply: 7.69
